Numbers sourced from paper PMC11834087.

biological target: PABPC (PABPC1 RRM1-4) (Homo sapiens, UniProt P11940 1-370); test: EMSA; RNA 5 nM; 1x binding buffer: 100 mM NaCl, 5 mM MgCl2, 0.5 mM EDTA, 0.01% NP-40, 0.1 mg/mL BSA (from 10x stock), 5% glycerol from RNA mix plus glycerol/PBS from protein stock; pH not stated; 15 min at room temperature; 6% native gel with 0.01% Triton X-100 at 4 C; settings: protein: commercial; tags: N-terminal 6xHis-SUMO; label: 3' Cy5
Sequence (P11940 1-370): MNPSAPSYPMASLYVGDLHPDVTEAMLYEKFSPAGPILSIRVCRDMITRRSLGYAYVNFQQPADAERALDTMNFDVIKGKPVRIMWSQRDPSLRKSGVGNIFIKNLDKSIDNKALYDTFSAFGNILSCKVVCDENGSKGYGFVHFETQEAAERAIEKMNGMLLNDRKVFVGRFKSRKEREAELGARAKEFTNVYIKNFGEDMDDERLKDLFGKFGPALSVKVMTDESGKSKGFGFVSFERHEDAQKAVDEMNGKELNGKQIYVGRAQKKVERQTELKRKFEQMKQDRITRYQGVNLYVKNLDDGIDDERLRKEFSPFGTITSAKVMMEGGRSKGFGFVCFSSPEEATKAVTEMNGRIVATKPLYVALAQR
readout.type: pKd
The scale used: pKd is minus the common logarithm of the concentration in molar units.

Returns the measured pKd for the input binder. Input: AAAAAAAAAAAAAAA (XNA, 2'-O-methyl and phosphorothioate on all 15 nucleotides) [fully modified poly(A)15]
7.07

Same read-out for AAAAAAAAAAAAAAA (XNA, 2'-O-methyl and phosphorothioate on the first three nucleotides (mA*mA*mA*A12)) [3NT Mod poly(A)15] ?
7.27
